# PROCEDURE_SUMMARY: Viability of spleen immune cells cultured in vitro (cytotoxicity)
# Type: cell-based, mice
# CONDITION_SUMMARY: mouse, immune cells separated from the spleen, cultured in vitro; 10 nM; 2nd day
# Description: Germ-free test animals, mice BDF1 and B6C3F1, obtained from Genetic Resources Center, Korean Research Institute of Bioscience and Biotechnology in the Korean Institute of Science and Technology, were used for the assay of the immunosuppressive activity of prodigiosin. […] When T lymphocyte activity was measured by use of a graft versus host reaction and a T cell-dependent antibody producing reaction, the prodigiosin suppressed the immune response, but exerted no toxicity on animals. […]
RECORDED_METRIC: viability at 2 day, 0.01 µM (%)

STRUCTURE_NOTATION | U | MEASURED_NUMBER
CCCCCC1=C/C(=C/c2[nH]c(-c3ccc[nH]3)cc2OC)N=C1C | % | 82

---

# PROCEDURE_SUMMARY: Viability of spleen immune cells cultured in vitro (cytotoxicity)
# Assay type: cell-based, mice
# CONDITION_SUMMARY: mouse, immune cells separated from the spleen, cultured in vitro; 1,000 nM; 3rd day

STRUCTURE_NOTATION | viability at 3 day, 1000 nM
CCCCCC1=C/C(=C/c2[nH]c(-c3ccc[nH]3)cc2OC)N=C1C | 14%

---

# PROCEDURE_SUMMARY: Viability of spleen immune cells cultured in vitro (cytotoxicity)
# Format: cell-based, mice
# CONDITION_SUMMARY: mouse, immune cells separated from the spleen, cultured in vitro; 100 nM; 1st day
RECORDED_METRIC: viability at 1 day, 0.1 µM (%)

MOLECULE | RECORDED_METRIC | MEASURED_NUMBER
CCCCCC1=C/C(=C/c2[nH]c(-c3ccc[nH]3)cc2OC)N=C1C [Prodigiosin, prodigiosin] | viability at 1 day, 0.1 µM | 82

---

# PROCEDURE_SUMMARY: Viability of spleen immune cells cultured in vitro (cytotoxicity)
# Format: cell-based, mice
# CONDITION_SUMMARY: mouse, immune cells separated from the spleen, cultured in vitro; 100 nM; 3rd day
RECORDED_METRIC: viability at 3 day, 0.1 µM (%)

STRUCTURE_NOTATION | MEASURED_NUMBER
CCCCCC1=C/C(=C/c2[nH]c(-c3ccc[nH]3)cc2OC)N=C1C | 70

---

# PROCEDURE_SUMMARY: Viability of spleen immune cells cultured in vitro (cytotoxicity)
# Type: cell-based, mice
# CONDITION_SUMMARY: mouse, immune cells separated from the spleen, cultured in vitro; 3,000 nM; 1st day
# Method: Germ-free test animals, mice BDF1 and B6C3F1, obtained from Genetic Resources Center, Korean Research Institute of Bioscience and Biotechnology in the Korean Institute of Science and Technology, were used for the assay of the immunosuppressive activity of prodigiosin. […] When T lymphocyte activity was measured by use of a graft versus host reaction and a T cell-dependent antibody producing reaction, the prodigiosin suppressed the immune response, but exerted no toxicity on animals. […]

STRUCTURE_NOTATION | viability at 1 day, 3000 nM / %
CCCCCC1=C/C(=C/c2[nH]c(-c3ccc[nH]3)cc2OC)N=C1C | 61

---

# PROCEDURE_SUMMARY: Viability of spleen immune cells cultured in vitro (cytotoxicity)
# Type: cell-based, mice
# CONDITION_SUMMARY: mouse, immune cells separated from the spleen, cultured in vitro; 1,000 nM; 1st day
RECORDED_METRIC: viability at 1 day, 1000 nM (%)

COMPOUND | RECORDED_METRIC | MEASURED_NUMBER
CCCCCC1=C/C(=C/c2[nH]c(-c3ccc[nH]3)cc2OC)N=C1C [Prodigiosin, prodigiosin] | viability at 1 day, 1000 nM | 74
